Details: in methanol, 325 K
readout: solubility (mole fraction)
No unit in the answer, only the number.

Q. Please give the measured solubility (mole fraction) for this molecule: "CO[C@H]1C[C@@H]2CC[C@@H](C)[C@@](O)(O2)C(=O)C(=O)N2CCCC[C@H]2C(=O)O[C@H]([C@H](C)C[C@@H]2CC[C@@H](O)[C@H](OC)C2)CC(=O)[C@H](C)/C=C(\C)[C@@H](O)[C@@H](OC)C(=O)[C@H](C)C[C@H](C)/C=C/C=C/C=C/1C"
A. 0.00163

----------
Settings: in dichloromethane, 315 K
readout: solubility (mole fraction)
# output: bare number, no unit

Q. Returns the measured solubility (mole fraction) for the input compound. Input: "CO[C@H]1C[C@@H]2CC[C@@H](C)[C@@](O)(O2)C(=O)C(=O)N2CCCC[C@H]2C(=O)O[C@H]([C@H](C)C[C@@H]2CC[C@@H](O)[C@H](OC)C2)CC(=O)[C@H](C)/C=C(\C)[C@@H](O)[C@@H](OC)C(=O)[C@H](C)C[C@H](C)/C=C/C=C/C=C/1C"
A. 0.00271

----------
Details: in acetone, 345 K
readout: solubility (mole fraction)
When you answer, write just the number.

Q. solubility (mole fraction) for "CO[C@H]1C[C@@H]2CC[C@@H](C)[C@@](O)(O2)C(=O)C(=O)N2CCCC[C@H]2C(=O)O[C@H]([C@H](C)C[C@@H]2CC[C@@H](O)[C@H](OC)C2)CC(=O)[C@H](C)/C=C(\C)[C@@H](O)[C@@H](OC)C(=O)[C@H](C)C[C@H](C)/C=C/C=C/C=C/1C" ?
A. 0.00721

----------
Conditions: in ethanol, 325 K
readout: solubility (mole fraction)
API note: the answer field is a bare number with no unit suffix.

Q. Recorded solubility (mole fraction) for "CO[C@H]1C[C@@H]2CC[C@@H](C)[C@@](O)(O2)C(=O)C(=O)N2CCCC[C@H]2C(=O)O[C@H]([C@H](C)C[C@@H]2CC[C@@H](O)[C@H](OC)C2)CC(=O)[C@H](C)/C=C(\C)[C@@H](O)[C@@H](OC)C(=O)[C@H](C)C[C@H](C)/C=C/C=C/C=C/1C" , please?
A. 0.00237

----------
Settings: in acetone, 320 K
readout: solubility (mole fraction)
Lab note: write the figure by itself, no unit.

Q. Which solubility (mole fraction) reading was recorded for the molecule "CO[C@H]1C[C@@H]2CC[C@@H](C)[C@@](O)(O2)C(=O)C(=O)N2CCCC[C@H]2C(=O)O[C@H]([C@H](C)C[C@@H]2CC[C@@H](O)[C@H](OC)C2)CC(=O)[C@H](C)/C=C(\C)[C@@H](O)[C@@H](OC)C(=O)[C@H](C)C[C@H](C)/C=C/C=C/C=C/1C" ?
A. 0.0047

----------
Settings: in chloroform, 325 K
readout: solubility (mole fraction)
Form field (numeric): enter value without unit.

Q. # input molecule: "CO[C@H]1C[C@@H]2CC[C@@H](C)[C@@](O)(O2)C(=O)C(=O)N2CCCC[C@H]2C(=O)O[C@H]([C@H](C)C[C@@H]2CC[C@@H](O)[C@H](OC)C2)CC(=O)[C@H](C)/C=C(\C)[C@@H](O)[C@@H](OC)C(=O)[C@H](C)C[C@H](C)/C=C/C=C/C=C/1C" ; wanted: its solubility (mole fraction)
A. 0.00386
